B1: CPEB3 Ribozyme (parent)
chain: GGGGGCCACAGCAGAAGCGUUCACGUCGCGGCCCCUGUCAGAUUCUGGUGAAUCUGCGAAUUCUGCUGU

- Variants of: B1
- method-notes: self-cleavage, relative activity (ratio to wild type); higher = more cleavage; co-transcriptional
Range-based classes on measured self-cleavage: L = under 0.2, M = from 0.2 up to 0.6, H = 0.6 and over

Some solved entries appear below for comparison.
U36A C45A	L
G3C G30C	L
A42G G47U	H

Prompt line: Input G14A C22G ; output its category
Response line: L

Prompt line: Input A16C G65A ; output its category
Response line: L

Prompt line: Input C18G U55A ; output its category
Response line: L

Prompt line: Input U43C U67A ; output its category
Response line: H

Prompt line: Input C12A U43G ; output its category
Response line: M

Prompt line: Input G2A U46C ; output its category
Response line: L

Prompt line: Input G19C U64C ; output its category
Response line: L

Prompt line: Input G25U G31U ; output its category
Response line: L

Prompt line: Input C32A U44G ; output its category
Response line: M

Prompt line: Input G3U C45U ; output its category
Response line: L
